- runDescription: First-in-human study Part 3, 100-mg SDD tablet food effect
- Format: in vivo
- assayConditions: plasma, oral, 200 mg, t1/2, single 200 mg dose of 100‐mg SDD tablets, Fasted, geometric mean (%CV)

molecule | half-life / h
O=c1[nH]c(=O)c(Cc2cccc(C(F)(F)F)c2)c([C@H]2CC[C@H](c3ccccc3)CC2)[nH]1 | 21.1

----------
- runDescription: In vitro blood/plasma partitioning
- Assay type: in vitro ADME
- assayConditions: rat, whole blood
readout: blood plasma ratio

molecule | readout | measurement
O=c1[nH]c(=O)c(Cc2cccc(C(F)(F)F)c2)c([C@H]2CC[C@H](c3ccccc3)CC2)[nH]1 | blood plasma ratio | 0.84

----------
- systemUnderTest: CYP2C9 (Homo sapiens)
- Sequence (P11712 whole entry): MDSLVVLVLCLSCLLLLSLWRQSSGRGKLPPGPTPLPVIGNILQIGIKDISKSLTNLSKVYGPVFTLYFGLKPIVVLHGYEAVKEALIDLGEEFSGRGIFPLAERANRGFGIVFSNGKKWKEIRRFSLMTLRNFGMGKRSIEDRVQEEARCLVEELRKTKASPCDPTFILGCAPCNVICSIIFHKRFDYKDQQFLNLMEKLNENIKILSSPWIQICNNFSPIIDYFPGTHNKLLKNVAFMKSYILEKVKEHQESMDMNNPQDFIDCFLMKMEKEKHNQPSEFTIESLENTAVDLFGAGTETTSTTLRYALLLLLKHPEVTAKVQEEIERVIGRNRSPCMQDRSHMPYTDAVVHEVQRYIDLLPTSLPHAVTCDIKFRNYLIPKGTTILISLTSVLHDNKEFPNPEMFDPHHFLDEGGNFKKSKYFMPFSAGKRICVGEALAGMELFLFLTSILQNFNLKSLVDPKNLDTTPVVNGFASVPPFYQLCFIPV
readout: IC50 (µM)

molecule | systemUnderTest | measurement
O=c1[nH]c(=O)c(Cc2cccc(C(F)(F)F)c2)c([C@H]2CC[C@H](c3ccccc3)CC2)[nH]1 | CYP2C9 (Homo sapiens) | 7.7

----------
- systemUnderTest: UGT1A1 (Homo sapiens, UniProt P22309)
- runDescription: DDI perpetrator study: dolutegravir probe
- Assay type: in vivo
- assayConditions: human, plasma, oral, 50 mg, AUC0‐inf, dolutegravir, probe alone (day 1), geometric mean
readout: AUC (ng·h/mL)

compound | readout | measurement
C[C@@H]1CCO[C@H]2Cn3cc(C(=O)NCc4ccc(F)cc4F)c(=O)c(O)c3C(=O)N12 [Dolutegravir] | AUC | 46300

----------
- Tested on: CYP3A4
- runDescription: clinical
- assayConditions: human, plasma, oral, 2.5 mg, AUC0‐inf, midazolam, probe alone (day 1), geometric mean
readout: AUC (ng·h/mL)

molecule | valueUnits | measurement
Cc1ncc2n1-c1ccc(Cl)cc1C(c1ccccc1F)=NC2 | ng·h/mL | 39.5

----------
- Test system: CYP3A4
- runDescription: clinical
- assayConditions: human, plasma, oral, AUC0‐inf, midazolam + miricorilant (day 10), geometric mean
readout: AUC (ng·h/mL)

molecule | valueUnits | measurement
Cc1ncc2n1-c1ccc(Cl)cc1C(c1ccccc1F)=NC2 | ng·h/mL | 34.7

----------
- runDescription: In vitro blood/plasma partitioning
- Assay type: in vitro ADME
- assayConditions: monkey, whole blood

molecule | blood plasma ratio
O=c1[nH]c(=O)c(Cc2cccc(C(F)(F)F)c2)c([C@H]2CC[C@H](c3ccccc3)CC2)[nH]1 | 0.83

----------
- systemUnderTest: BCRP (Homo sapiens, UniProt Q9UNQ0)
- Sequence (Q9UNQ0 1-655): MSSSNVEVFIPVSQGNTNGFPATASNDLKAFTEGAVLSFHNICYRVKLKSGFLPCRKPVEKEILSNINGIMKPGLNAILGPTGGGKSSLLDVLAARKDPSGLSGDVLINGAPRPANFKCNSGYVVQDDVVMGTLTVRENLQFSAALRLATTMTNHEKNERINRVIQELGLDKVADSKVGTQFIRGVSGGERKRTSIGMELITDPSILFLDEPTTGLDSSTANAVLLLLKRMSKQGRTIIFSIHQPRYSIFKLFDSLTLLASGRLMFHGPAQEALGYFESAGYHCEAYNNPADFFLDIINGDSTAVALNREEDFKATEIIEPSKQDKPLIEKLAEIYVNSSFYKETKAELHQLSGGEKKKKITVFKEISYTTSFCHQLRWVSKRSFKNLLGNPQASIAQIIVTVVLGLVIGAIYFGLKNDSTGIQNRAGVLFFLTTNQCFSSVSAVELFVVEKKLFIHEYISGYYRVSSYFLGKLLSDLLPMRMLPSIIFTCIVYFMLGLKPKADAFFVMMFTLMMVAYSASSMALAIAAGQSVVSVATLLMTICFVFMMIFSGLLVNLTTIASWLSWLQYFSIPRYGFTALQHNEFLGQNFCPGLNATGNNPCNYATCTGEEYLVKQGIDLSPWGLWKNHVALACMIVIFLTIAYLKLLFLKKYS
- runDescription: DDI perpetrator study: rosuvastatin probe
- Type: in vivo
- assayConditions: human, plasma, oral, 10 mg, AUC0‐last, rosuvastatin, probe alone (day 1), geometric mean

molecule | valueUnits | AUC
CC(C)c1nc(N(C)S(C)(=O)=O)nc(-c2ccc(F)cc2)c1/C=C/[C@@H](O)C[C@@H](O)CC(=O)O | ng·h/mL | 17.1

----------
- runDescription: Human [14C] ADME study
- Type: in vivo
- assayConditions: male, human, plasma, po, 150 mg

molecule | valueUnits | Cmax
O=c1[nH]c(=O)c(Cc2cccc(C(F)(F)F)c2)c([C@H]2CC[C@H](c3ccccc3)CC2)[nH]1 [miricorilant] | ng/mL | 343

----------
- systemUnderTest: BCRP (Homo sapiens, UniProt Q9UNQ0)
- runDescription: DDI perpetrator study: rosuvastatin probe
- Format: in vivo
- assayConditions: human, plasma, oral, 10 mg
readout: Cmax (ng/mL)

molecule | measurement
CC(C)c1nc(N(C)S(C)(=O)=O)nc(-c2ccc(F)cc2)c1/C=C/[C@@H](O)C[C@@H](O)CC(=O)O | 2.35

----------
- systemUnderTest: CYP2C8 (Homo sapiens)
- Sequence (P10632 1-490): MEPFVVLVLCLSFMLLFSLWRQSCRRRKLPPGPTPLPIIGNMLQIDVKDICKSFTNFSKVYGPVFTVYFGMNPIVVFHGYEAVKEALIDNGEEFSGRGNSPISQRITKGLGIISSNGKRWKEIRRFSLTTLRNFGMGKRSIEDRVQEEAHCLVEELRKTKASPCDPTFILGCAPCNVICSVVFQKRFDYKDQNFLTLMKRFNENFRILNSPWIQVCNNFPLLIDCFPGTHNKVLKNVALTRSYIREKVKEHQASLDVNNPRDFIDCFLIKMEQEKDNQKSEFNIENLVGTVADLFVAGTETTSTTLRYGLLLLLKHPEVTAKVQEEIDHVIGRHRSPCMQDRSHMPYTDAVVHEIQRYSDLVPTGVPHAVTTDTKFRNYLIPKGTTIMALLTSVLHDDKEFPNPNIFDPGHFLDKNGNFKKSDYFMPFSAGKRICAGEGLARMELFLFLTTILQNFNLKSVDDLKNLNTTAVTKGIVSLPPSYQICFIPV
- runDescription: DDI perpetrator study: repaglinide probe
- Type: in vivo
- assayConditions: human, plasma, oral, 0.5 mg, AUC0‐inf, repaglinide, probe alone (day 1), geometric mean

compound | AUC, ng·h/mL
CCOc1cc(CC(=O)N[C@@H](CC(C)C)c2ccccc2N2CCCCC2)ccc1C(=O)O [Repaglinide] | 7.27

----------
- systemUnderTest: BCRP (Homo sapiens)
- Sequence (Q9UNQ0 1-655): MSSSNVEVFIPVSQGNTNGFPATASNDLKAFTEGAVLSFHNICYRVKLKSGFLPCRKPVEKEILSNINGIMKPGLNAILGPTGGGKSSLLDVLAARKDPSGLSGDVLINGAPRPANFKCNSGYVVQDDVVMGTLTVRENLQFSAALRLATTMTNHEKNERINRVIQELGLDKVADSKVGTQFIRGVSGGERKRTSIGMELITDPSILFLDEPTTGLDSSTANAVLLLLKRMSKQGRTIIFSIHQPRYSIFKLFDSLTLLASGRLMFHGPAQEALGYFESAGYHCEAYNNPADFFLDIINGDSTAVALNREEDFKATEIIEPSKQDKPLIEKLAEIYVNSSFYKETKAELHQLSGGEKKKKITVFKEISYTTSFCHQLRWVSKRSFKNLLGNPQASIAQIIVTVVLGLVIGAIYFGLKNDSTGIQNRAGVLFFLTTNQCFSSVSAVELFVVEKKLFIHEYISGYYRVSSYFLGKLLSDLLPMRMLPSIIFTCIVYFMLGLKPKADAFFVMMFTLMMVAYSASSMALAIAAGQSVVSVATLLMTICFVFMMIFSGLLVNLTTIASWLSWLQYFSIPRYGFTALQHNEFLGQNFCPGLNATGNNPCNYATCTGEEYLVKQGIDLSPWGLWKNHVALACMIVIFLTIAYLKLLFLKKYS
- runDescription: ABC transporter inhibition, inside-out vesicles
pIC50: −log10 of the molar value.

compound | systemUnderTest | pIC50
O=c1[nH]c(=O)c(Cc2cccc(C(F)(F)F)c2)c([C@H]2CC[C@H](c3ccccc3)CC2)[nH]1 [miricorilant] | BCRP (Homo sapiens) | 6.32

----------
Target protein (sequence): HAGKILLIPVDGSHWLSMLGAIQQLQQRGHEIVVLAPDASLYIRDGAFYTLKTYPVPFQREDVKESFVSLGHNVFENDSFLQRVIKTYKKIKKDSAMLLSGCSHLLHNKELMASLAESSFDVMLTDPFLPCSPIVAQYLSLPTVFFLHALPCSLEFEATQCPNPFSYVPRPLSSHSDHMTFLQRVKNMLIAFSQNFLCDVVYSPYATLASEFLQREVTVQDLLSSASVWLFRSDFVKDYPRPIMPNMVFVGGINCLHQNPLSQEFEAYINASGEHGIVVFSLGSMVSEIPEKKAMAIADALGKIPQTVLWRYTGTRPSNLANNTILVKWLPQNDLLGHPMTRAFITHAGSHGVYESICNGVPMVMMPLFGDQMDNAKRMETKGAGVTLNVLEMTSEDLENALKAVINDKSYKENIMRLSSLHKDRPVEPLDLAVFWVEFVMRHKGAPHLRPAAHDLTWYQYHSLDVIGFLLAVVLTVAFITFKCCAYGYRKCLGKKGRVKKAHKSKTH
pIC50: −log10 of the molar value.
readout: pIC50

molecule | measurement
O=c1[nH]c(=O)c(Cc2cccc(C(F)(F)F)c2)c([C@H]2CC[C@H](c3ccccc3)CC2)[nH]1 | 5.85
